Record form. Attribute: furin cleavage Z-score. Fill in for each entry.
measurementTarget: furin, P09958;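 note: purified furin at 1:10 enzyme:substrate in 50 mM HEPES pH 7.5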
Sequence (P09958 whole entry): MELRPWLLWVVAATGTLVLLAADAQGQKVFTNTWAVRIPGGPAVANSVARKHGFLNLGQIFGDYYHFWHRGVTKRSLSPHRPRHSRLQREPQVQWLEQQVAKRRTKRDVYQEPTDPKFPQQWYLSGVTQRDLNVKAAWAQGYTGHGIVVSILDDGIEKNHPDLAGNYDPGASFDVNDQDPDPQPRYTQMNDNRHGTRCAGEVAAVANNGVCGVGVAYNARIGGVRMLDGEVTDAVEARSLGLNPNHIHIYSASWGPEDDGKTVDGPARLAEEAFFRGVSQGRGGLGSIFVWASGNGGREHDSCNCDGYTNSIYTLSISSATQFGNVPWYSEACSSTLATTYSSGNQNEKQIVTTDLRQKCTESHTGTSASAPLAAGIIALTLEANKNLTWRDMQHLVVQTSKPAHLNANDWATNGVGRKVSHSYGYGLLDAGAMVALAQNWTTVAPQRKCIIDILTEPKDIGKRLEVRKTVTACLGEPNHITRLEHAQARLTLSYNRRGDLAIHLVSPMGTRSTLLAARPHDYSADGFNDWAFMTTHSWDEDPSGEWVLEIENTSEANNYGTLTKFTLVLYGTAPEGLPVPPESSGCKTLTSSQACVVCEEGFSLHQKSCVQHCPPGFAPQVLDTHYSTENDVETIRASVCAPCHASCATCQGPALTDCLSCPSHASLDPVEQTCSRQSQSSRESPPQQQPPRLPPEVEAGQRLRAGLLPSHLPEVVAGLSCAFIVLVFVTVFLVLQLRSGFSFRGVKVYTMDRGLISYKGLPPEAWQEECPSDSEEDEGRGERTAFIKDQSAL
assayRemarks: furin cleavage Z-score vs untreated control; higher = more cleavage, active = 3.5 or more, inactive = 1 or less, 8 variable residues between constant flanks
experimentalSetup: 30 min
This is one part of the list. No count for the full screen is at hand.
Give bare numbers.

CARKARALGTAGNASASA [FS-2034] = 7.74

# batch size: 3; output furin cleavage Z-score per entry
1. CASTPCSAQLAGNASASA [HC2562]
2. CARARRQLGTAGNASASA [FS-3184]
3. CARKAKEEGTAGNASASA [FS-2957]

**Result**
[0.259, 4.88, -0.377]
